target: Leucine aminopeptidase (Microsomal) (LAPM) (Sus scrofa, UniProt P15145)
Sequence (P15145 whole entry): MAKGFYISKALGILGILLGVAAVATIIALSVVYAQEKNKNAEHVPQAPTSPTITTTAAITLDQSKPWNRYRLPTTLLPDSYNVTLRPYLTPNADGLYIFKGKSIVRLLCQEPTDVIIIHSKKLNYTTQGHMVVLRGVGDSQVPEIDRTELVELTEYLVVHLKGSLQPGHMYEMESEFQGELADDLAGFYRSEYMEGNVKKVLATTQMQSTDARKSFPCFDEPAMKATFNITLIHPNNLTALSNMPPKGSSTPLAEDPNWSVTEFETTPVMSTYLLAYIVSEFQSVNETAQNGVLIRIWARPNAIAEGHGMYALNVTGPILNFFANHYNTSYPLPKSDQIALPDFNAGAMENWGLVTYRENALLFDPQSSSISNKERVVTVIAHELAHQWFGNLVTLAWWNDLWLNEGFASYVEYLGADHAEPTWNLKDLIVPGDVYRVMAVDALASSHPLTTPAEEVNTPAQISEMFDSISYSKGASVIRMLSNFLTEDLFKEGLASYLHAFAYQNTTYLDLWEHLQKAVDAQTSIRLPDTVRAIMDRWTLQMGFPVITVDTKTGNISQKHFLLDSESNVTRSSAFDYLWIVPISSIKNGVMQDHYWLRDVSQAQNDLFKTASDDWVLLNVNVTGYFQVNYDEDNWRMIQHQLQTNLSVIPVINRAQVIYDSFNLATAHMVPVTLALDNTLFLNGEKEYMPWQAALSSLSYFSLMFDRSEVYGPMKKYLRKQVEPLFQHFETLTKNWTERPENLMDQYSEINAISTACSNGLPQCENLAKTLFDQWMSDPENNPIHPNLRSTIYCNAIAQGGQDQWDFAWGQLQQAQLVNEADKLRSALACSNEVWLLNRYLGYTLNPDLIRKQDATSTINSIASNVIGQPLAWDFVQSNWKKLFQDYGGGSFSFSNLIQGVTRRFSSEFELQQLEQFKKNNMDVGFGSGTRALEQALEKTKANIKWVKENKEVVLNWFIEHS
Counter-ions that a name gives are not always drawn.
Threshold-based label: IC50 under 2 nM gives yes, IC50 not under 2 nM gives no.

Compound	Class name
CC1(C)OB(C(N)Cc2ccccc2)OC1(C)C (centres unmarked) [5 (R=CH2 C6 H5), trifluoroacetic acid salt]	yes
CC(N)B1OC(C)(C)C(C)(C)O1 (centres unmarked) [5 (R=CH3), trifluoroacetic acid salt]	no
CC(C)CC(N)B1OC(C)(C)C(C)(C)O1 (centres unmarked) [5 (R=CH2 CH(CH3)2), trifluoroacetic acid salt]	yes
CC(C)C(N)B1OC(C)(C)C(C)(C)O1 (centres unmarked) [5 (R=CH(CH3)2), trifluoroacetic acid salt]	no
CCC(C)C(N)B1OC(C)(C)C(C)(C)O1 (centres unmarked) [5 (R=CH(CH3)C2 H5), trifluoroacetic acid salt]	no

###

target: Leucine aminopeptidase (cytosolic) (LAPC) (Sus scrofa, UniProt P28839); construct: (LAPC) from hog kidney; from tissue; host or cells: hog kidney; assay: IC50 with leucine aminopeptidase (cytosolic); format: biochemical, hog; details: 112 hours at 0°-5°, pH 8.5, substrate (L)-leucine-p-nitroanilide, absorption at 405 nm
Sequence (P28839 33-519 limits assumed): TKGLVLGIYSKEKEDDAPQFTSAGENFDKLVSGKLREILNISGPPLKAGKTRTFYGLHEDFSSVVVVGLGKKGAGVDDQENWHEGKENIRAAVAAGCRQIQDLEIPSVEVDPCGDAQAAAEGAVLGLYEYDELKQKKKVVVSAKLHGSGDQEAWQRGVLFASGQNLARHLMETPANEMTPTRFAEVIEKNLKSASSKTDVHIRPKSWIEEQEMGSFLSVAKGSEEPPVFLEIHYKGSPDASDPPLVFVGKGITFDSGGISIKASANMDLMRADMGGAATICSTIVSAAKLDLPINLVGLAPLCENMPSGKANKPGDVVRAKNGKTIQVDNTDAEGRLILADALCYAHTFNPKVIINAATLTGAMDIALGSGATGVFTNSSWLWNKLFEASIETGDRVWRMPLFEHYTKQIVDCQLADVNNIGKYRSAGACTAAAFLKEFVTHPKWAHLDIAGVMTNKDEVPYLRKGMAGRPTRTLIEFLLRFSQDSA
pIC50: −log10 of the molar value. Counter-ions that a name gives are not always drawn.
Observation type: pIC50

Compound	Quantitative result
CC(C)CC(N)B1OC(C)(C)C(C)(C)O1 (centres unmarked) [5 (R=CH2 CH(CH3)2), trifluoroacetic acid salt]	6.82
CC(N)B1OC(C)(C)C(C)(C)O1 (centres unmarked) [5 (R=CH3), trifluoroacetic acid salt]	4.52
CC(C)C(N)B1OC(C)(C)C(C)(C)O1 (centres unmarked) [5 (R=CH(CH3)2), trifluoroacetic acid salt]	7.15
CC1(C)OB(C(N)Cc2ccccc2)OC1(C)C (centres unmarked) [5 (R=CH2 C6 H5), trifluoroacetic acid salt]	8.00
CCC(C)C(N)B1OC(C)(C)C(C)(C)O1 (centres unmarked) [5 (R=CH(CH3)C2 H5), trifluoroacetic acid salt]	7.52
